B1: GMCL1 (parent)
chain: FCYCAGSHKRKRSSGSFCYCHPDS

Variants of: B1
Experiment: protein stability index of a GFP-peptide fusion (GPS, HEK-293T) (PSI 1-6); higher = more stable;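 further: lentivirally expressed fusions sorted by FACS into six bins by GFP to DsRed ratio, PSI derived from sequencing read proportions per bin multiplied by bin number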
Settings: c terminus: a fixed tail appended
Output 1 (yes) for protein stability index not less than 2; output 0 (no) otherwise.

[
  {
    "Residue Change": "F1T",
    "Class Name": "1 (yes)"
  },
  {
    "Residue Change": "S14G",
    "Class Name": "0 (no)"
  },
  {
    "Residue Change": "C20D",
    "Class Name": "1 (yes)"
  },
  {
    "Residue Change": "H21V",
    "Class Name": "1 (yes)"
  },
  {
    "Residue Change": "S13I",
    "Class Name": "0 (no)"
  },
  {
    "Residue Change": "S7C",
    "Class Name": "1 (yes)"
  }
]

Next item in the queue.
Query: API: above_or_equal(metric=protein stability index, cutoff=2) for item F1W
Result: 0 (no)
